In this section, each of the binders is paired with its reported FACS signal.
target: human CLDN6 fused to GFP, expressed on engineered HEK293T cells (human) (UniProt P56747); assay: FACS, 293T clone with human CLDN6, 1.5 ug Ab

1) AB4-9 (antibody, V domains shown) VH: QVQLVQSGAEVKKPGASVKMSCKASGYTFTSYTMHWIRQAPGQGLEWIGYINPSSTYTHYIKKFKDRATLTADTSTSTAYMELSSLRSEDTAVYYCSRGELGGFAYWGQGTLVTVSS VL: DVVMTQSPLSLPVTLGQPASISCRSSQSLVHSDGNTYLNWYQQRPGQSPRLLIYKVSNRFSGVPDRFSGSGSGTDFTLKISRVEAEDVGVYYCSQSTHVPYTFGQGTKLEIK :: 56900
2) AB3-7 (antibody, V domains shown) VH: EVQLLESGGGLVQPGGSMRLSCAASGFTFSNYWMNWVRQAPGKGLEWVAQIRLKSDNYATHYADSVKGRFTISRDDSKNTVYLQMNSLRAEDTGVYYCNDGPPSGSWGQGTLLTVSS VL: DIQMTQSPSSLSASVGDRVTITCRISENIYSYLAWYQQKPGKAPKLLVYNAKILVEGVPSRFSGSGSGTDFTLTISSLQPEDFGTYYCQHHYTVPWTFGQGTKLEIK :: 169000

Turning now to a further binder:
Entry AB4-chim (antibody, V domains shown) VH: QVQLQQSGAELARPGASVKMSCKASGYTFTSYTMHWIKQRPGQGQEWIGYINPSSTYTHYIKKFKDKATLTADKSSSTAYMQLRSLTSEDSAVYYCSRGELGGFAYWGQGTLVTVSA VL: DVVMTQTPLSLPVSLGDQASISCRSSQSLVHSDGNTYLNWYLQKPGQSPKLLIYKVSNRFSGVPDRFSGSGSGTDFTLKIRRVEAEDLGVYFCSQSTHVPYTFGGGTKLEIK — recorded FACS signal = 327000

Attribution: patent US20220177583A1
